Below, each entry is listed with its recorded Plasma concentration.
Biological target: CYP2D6 (Homo sapiens)
Construct: purchased BD Gentest (Woburn, MA, USA); host or cells: baculovirus expression system
Sequence (P10635 whole entry): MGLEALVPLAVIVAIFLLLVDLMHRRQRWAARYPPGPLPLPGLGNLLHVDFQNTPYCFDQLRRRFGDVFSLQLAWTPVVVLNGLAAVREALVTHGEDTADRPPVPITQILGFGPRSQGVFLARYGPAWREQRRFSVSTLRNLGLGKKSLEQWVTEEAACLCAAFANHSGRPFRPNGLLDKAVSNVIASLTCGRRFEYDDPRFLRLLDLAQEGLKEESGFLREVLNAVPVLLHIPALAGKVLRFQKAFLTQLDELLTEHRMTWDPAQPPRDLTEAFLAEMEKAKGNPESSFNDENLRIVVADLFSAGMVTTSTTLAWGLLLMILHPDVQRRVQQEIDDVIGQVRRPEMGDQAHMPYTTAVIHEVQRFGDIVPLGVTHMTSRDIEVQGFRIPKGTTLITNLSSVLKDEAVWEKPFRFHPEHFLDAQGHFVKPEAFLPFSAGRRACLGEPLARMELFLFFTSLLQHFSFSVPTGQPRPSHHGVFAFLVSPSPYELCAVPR
Assay: Prediction of in vivo HDI from in vitro results, CYP2D6
Conditions: Table 3, CYP2D6 section
Value expressed in µg/mL; do not type the unit.

[
  {
    "compound": "CCCC/C=C\\CCCCCCCCCC1=C(c2c(O)cc(O)cc2CCCCCCCCC/C=C\\CCCC)C(=O)C=C(OC)C1=O",
    "measured.target": "CYP2D6 (Homo sapiens)",
    "measured.value": 1.64
  },
  {
    "compound": "CCCC/C=C\\CCCCCCCCCc1cc(O)cc(O)c1 [5-[10(Z)-pentadecenyl]resorcinol]",
    "measured.target": "CYP2D6 (Homo sapiens)",
    "measured.value": 1.46
  },
  {
    "compound": "CCCC/C=C\\CCCCCCCCCc1cc(O)cc2oc3cc(OC)c(O)c(CCCCCCCCC/C=C\\CCCC)c3c12",
    "measured.target": "CYP2D6 (Homo sapiens)",
    "measured.value": 0.016
  }
]

Please find the next compound below.
Q) What does the record list as Plasma concentration for CCCC/C=C\CCCCCCCCCc1cc(O)cc(OC)c1 ?
A) 0.65

* * *

Molecular target: CYP2C19 (Homo sapiens)
Construct: purchased BD Gentest (Woburn, MA, USA); host or cells: baculovirus expression system
Sequence (P33261 whole entry): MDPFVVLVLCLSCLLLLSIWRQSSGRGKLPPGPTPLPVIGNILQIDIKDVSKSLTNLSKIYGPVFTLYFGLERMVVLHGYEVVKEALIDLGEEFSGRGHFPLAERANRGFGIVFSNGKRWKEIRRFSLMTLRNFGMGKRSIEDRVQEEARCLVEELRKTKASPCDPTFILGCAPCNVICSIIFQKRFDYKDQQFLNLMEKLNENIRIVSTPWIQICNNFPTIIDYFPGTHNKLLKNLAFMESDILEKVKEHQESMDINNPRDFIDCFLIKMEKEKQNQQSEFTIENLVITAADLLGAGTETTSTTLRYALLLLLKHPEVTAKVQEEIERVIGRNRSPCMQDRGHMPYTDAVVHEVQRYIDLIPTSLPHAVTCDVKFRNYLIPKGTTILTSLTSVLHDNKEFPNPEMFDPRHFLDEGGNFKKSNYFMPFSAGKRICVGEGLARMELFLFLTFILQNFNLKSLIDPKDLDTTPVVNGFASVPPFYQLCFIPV
Experiment: Prediction of in vivo HDI from in vitro results, CYP2C19
Parameters: key: If the IC50 values were lower than the GIT or plasma concentration, then the test compound or extract is likely to cause HDI in vivo
Details: CYP2C19; IC50 compared with estimated GIT and plasma concentrations

[
  {
    "compound": "CCCC/C=C\\CCCCCCCCCC1=C(c2c(O)cc(O)cc2CCCCCCCCC/C=C\\CCCC)C(=O)C=C(OC)C1=O [Demethylbelamcandaquinone B]",
    "measured.target": "CYP2C19 (Homo sapiens)",
    "Likelihood of causing HDI": "likely"
  },
  {
    "compound": "CCCC/C=C\\CCCCCCCCCc1cc(O)cc(OC)c1 [Belamcandol B]",
    "measured.target": "CYP2C19 (Homo sapiens)",
    "Likelihood of causing HDI": "likely"
  },
  {
    "compound": "CCCC/C=C\\CCCCCCCCCc1cc(O)cc(O)c1 [5-[10(Z)-pentadecenyl]resorcinol]",
    "measured.target": "CYP2C19 (Homo sapiens)",
    "Likelihood of causing HDI": "likely"
  }
]

* * *

Biological target: CYP2D6 (Homo sapiens)
Test: Reversible inhibition of recombinant CYP2D6
quantity.kind: pIC50
The meaning of pIC50 here: minus log10 of the concentration in molar units.

[
  {
    "molecule": "CCCC/C=C\\CCCCCCCCCc1cc(O)cc(OC)c1",
    "measured.target": "CYP2D6 (Homo sapiens)",
    "quantity.kind": "pIC50",
    "measured.value": 3.98
  },
  {
    "molecule": "CCCC/C=C\\CCCCCCCCCc1cc(O)cc(O)c1 [5-[10(Z)-pentadecenyl]resorcinol]",
    "measured.target": "CYP2D6 (Homo sapiens)",
    "quantity.kind": "pIC50",
    "measured.value": 4.06
  }
]

Q) What does the record list as pIC50 for CCCC/C=C\CCCCCCCCCC1=C(c2c(O)cc(O)cc2CCCCCCCCC/C=C\CCCC)C(=O)C=C(OC)C1=O ?
A) 4.48
